molecular target: Man(a1-2)Man(a1-2)Man(a1-3)Man; assay: glycan array binding signal (z-score within array); higher = stronger binding; conditions: glycan notation: IUPAC condensed, linker removed
Shown is part of a subset that was picked to be rich in the strongest signals.
glycan array binding signal (z-score) vs 3: at or above is 1.0, below is 0.0.

[[record]]
binder = "Arath Fbox LD (Arabidopsis thaliana) (protein) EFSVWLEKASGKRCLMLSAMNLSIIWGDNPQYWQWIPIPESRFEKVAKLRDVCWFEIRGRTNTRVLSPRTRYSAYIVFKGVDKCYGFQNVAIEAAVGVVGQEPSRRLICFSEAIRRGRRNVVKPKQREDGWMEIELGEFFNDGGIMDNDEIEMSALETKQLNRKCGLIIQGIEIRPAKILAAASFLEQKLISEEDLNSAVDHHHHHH"
class_name = 0.0

[[record]]
binder = "CLC (Homo sapiens), Q9UBD9 (protein) MDLRAGDSWGMLACLCTVLWHLPAVPALNRTGDPGPGPSIQKTYDLTRYLEHQLRSLAGTYLNYLGPPFNEPDFNPPRLGAETLPRATVDLEVWRSLNDKLRLTQNYEAYSHLLCYLRGLNRQAATAELRRSLAHFCTSLQGLLGSIAGVMAALGYPLPQPLPGTEPTWTPGPAHSDFLQKMDDFWLLKELQTWLWRSAKDFNRLKKKMQPPAAAVTLHLGAHGF"
class_name = 0.0

[[record]]
binder = "ASA (Allium sativum) (protein) KAHEKERMGRNTPSAKLMSIAAVAAILTILASTCMARNLLTNGEGLYAGQSLNVEPYHFIMQEDCNLVLYDHSTAVWATNTDIPGKKECRAVLQSDGNFVVYDADGRPLWASHSVRGNGNYVLVLQEDGNVVIYGSDIWSTGTYVKAARGPVVVAMNGTVDGGSLIRPVIVNKNHVPVIRKVGTLSRNILRNDEGLYAGQSLDVEPYHFIMHEDCNLVLYDHSTAVWASNTDIPGKKGCKAVLQSDGNFVVYDAEGRSLWASHSVRGNGNYVLVLQEDGNVVIYGSDIWSTDTYRKSARGPVIRKVGTLAGAA"
class_name = 1.0

[[record]]
binder = "CVN (Nostoc ellipsosporum), P81180 (protein) LGKFSQTCYNSAIQGSVLTSTCERTNGGYNTSSIDLNSVIENVDGSLKWQPSNFIETCRNTQLAGSSELAAECKTRAQQFVSTKINLDDHIANIDGTLKYE"
class_name = 1.0

[[record]]
binder = "Mermaid3 (Stilbonema majum) (protein) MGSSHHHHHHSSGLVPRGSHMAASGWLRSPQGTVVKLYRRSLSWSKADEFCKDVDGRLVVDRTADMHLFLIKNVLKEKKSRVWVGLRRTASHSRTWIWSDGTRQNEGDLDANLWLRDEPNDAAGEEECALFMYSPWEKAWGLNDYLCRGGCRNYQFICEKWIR"
class_name = 0.0

[[record]]
binder = "TREM-2 (Mus musculus), Q99NH8 (protein) MGPLHQFLLLLITALSQALNTTVLQGMAGQSLRVSCTYDALKHWGRRKAWCRQLGEEGPCQRVVSTHGVWLLAFLKKRNGSTVIADDTLAGTVTITLKNLQAGDAGLYQCQSLRGREAEVLQKVLVEVLEDPLDDQDAGDLWVPEESSSFEGAQVEHSTSRNQETSFPPTSILLLLACVLLSKFLAASILWAVARGRQKPGTPVVRGLDCGQDAGHQLQILTGPGGT"
class_name = 0.0

[[record]]
binder = "Nictaba (Nicotiana tabacum), Q94EW1 (protein) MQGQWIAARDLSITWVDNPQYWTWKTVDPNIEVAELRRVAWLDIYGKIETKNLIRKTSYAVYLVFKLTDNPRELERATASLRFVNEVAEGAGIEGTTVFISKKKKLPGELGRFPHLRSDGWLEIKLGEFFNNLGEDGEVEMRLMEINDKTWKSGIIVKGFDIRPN"
class_name = 0.0

[[record]]
binder = "Actd5 (Actinidia), P84527 (protein) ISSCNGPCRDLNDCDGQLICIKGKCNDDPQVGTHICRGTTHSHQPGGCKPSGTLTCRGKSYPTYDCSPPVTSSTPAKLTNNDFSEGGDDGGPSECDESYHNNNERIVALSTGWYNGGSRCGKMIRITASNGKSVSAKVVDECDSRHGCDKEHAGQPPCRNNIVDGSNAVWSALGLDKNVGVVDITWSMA"
class_name = 0.0

[[record]]
binder = "DC-SIGN (Canis lupus), XP_853402 (protein) AGLCRPCPWKWELFQESCYFFSQTQNTWKESISACQNLRAQLVIINSTEEQKFLKSWNTRNNQRTWIGLSDHHNEGSWKWVDNTPLQLSFWKEGEPNNHGDEDCVELYSDGWNDNRCSTENFWICKKPSSPCPGPGLNDIFEAQKIEWHE"
class_name = 1.0

[[record]]
binder = "HMGB1 (Homo sapiens), P09429 (protein) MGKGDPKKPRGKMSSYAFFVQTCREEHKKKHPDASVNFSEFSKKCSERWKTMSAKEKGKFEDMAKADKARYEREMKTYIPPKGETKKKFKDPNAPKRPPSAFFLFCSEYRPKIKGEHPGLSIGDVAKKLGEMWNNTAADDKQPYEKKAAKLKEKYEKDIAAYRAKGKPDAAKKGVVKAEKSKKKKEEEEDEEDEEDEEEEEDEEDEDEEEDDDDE"
class_name = 0.0

